Below, each of the compounds is paired with its reported Bliss excess value.
# System: NCI-H526 (Small Cell Lung Carcinoma);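 note: after 72 h of two-drug dosing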
# PROTOCOL SUMMARY: Bliss excess, mean over the matrix (fraction); higher = more synergy

# COMPOUND, MEASUREMENT TARGET, Bliss excess
data = [
    ("CC(=O)Nc1cccc(-n2c(=O)n(C3CC3)c(=O)c3c(Nc4ccc(I)cc4F)n(C)c(=O)c(C)c32)c1 [Trametinib] + Cc1nc(-c2cn3c(n2)-c2ccc(-c4cnn(C(C)(C)C(N)=O)c4)cc2OCC3)n(C(C)C)n1 [Taselisib] (first compound max 1 µM, 7x7, partner max 10 µM)", "NCI-H526 (Small Cell Lung Carcinoma)", -0.0308),
    ("C[C@@H](Nc1cc(F)cc(F)c1)c1cc(C(=O)N(C)C)cc2c(=O)cc(N3CCOCC3)oc12 [AZD8186] + CC(=O)c1c(C)c2cnc(Nc3ccc(N4CCNCC4)cn3)nc2n(C2CCCC2)c1=O [Palbociclib] (first compound max 10 µM, 7x7, partner max 10 µM)", "NCI-H526 (Small Cell Lung Carcinoma)", -0.0207),
    ("COc1cc2c(cc1OCCCCCOc1cc3c(cc1OC)C(=O)N1C=C(C)C[C@H]1C=N3)N=C[C@@H]1CC(C)=CN1C2=O [SG3199] + O=C(c1cc(Cc2n[nH]c(=O)c3ccccc23)ccc1F)N1CCN(C(=O)C2CC2)CC1 [Olaparib] (first compound max 0.001 µM, 7x7, partner max 10 µM)", "NCI-H526 (Small Cell Lung Carcinoma)", -0.0148),
    ("CC1(C)CCC(CN2CCN(c3ccc(C(=O)NS(=O)(=O)c4ccc(NCC5CCOCC5)c([N+](=O)[O-])c4)c(Oc4cnc5[nH]ccc5c4)c3)CC2)=C(c2ccc(Cl)cc2)C1 [Venetoclax] + CN(C)CCCOc1ccc(-c2ccc3ncc4c(c3c2)n(C2CCOCC2)c(=O)n4C)cn1 [AZD0156] (first compound max 1 µM, 7x7, partner max 1 µM)", "NCI-H526 (Small Cell Lung Carcinoma)", 0.0393),
    ("CC(=O)c1c(C)c2cnc(Nc3ccc(N4CCNCC4)cn3)nc2n(C2CCCC2)c1=O [Palbociclib] + CC1(C)CCC(CN2CCN(c3ccc(C(=O)NS(=O)(=O)c4ccc(NCC5CCOCC5)c([N+](=O)[O-])c4)c(Oc4cnc5[nH]ccc5c4)c3)CC2)=C(c2ccc(Cl)cc2)C1 [Venetoclax] (first compound max 10 µM, 7x7, partner max 1 µM)", "NCI-H526 (Small Cell Lung Carcinoma)", -0.0033),
    ("C=CCn1c(=O)c2cnc(Nc3ccc(N4CCN(C)CC4)cc3)nc2n1-c1cccc(C(C)(C)O)n1 [AZD1775] + CCc1c2c(nc3ccc(O)cc13)-c1cc3c(c(=O)n1C2)COC(=O)[C@]3(O)CC [SN-38] (first compound max 1 µM, partner max 0.3 µM)", "NCI-H526 (Small Cell Lung Carcinoma)", -0.0476),
    ("C[C@@H]1COCCN1c1cc(C2([S@](C)(=N)=O)CC2)nc(-c2ccnc3[nH]ccc23)n1 [AZD6738] + O=C(c1cc(Cc2n[nH]c(=O)c3ccccc23)ccc1F)N1CCN(C(=O)C2CC2)CC1 [Olaparib] (first compound max 10 µM, 7x7, partner max 10 µM)", "NCI-H526 (Small Cell Lung Carcinoma)", -0.0072),
]

====

Below, each of the compounds is paired with its reported combination Emax value.
# System: SNU-398 (Hepatocellular Carcinoma)
# PROTOCOL SUMMARY: combination Emax (second highest fraction inhibited in the dose matrix, 72 h); higher = more inhibition; extreme values may be limits of the assay

# COMPOUND, combination Emax
records = [
    ("C=CCn1c(=O)c2cnc(Nc3ccc(N4CCN(C)CC4)cc3)nc2n1-c1cccc(C(C)(C)O)n1 [AZD1775] + C[C@@H]1COCCN1C2=NC(=NC(=C2)C3(CC3)[S@](=N)(=O)C)C4=C5C=CNC5=NC=C4 [AZD6738] (first compound max 1 µM, partner max 10 µM)", 0.563),
    ("Cc1cc2ncnn2cc1Nc1ncc2c(n1)n(C1CCOCC1)c(=O)n2C [AZD7648] + C=CCn1c(=O)c2cnc(Nc3ccc(N4CCN(C)CC4)cc3)nc2n1-c1cccc(C(C)(C)O)n1 [AZD1775] (first compound max 10 µM, partner max 1 µM)", 0.533),
    ("COc1nnc2ccc(N3CCC(c4ccc(OCCN5CCN(C)C(=O)[C@H]5C)cc4)CC3)nn12 [AZD5153] + CN(CC[C@H](CSC1=CC=CC=C1)NC2=C(C=C(C=C2)S(=O)(=O)NC(=O)C3=CC=C(C=C3)N4CCC(CC4)[C@H](C5=CC=CC=C5C6=CC=C(C=C6)Cl)O)S(=O)(=O)C(F)(F)F)CCO [AZD4320] (first compound max 1 µM, 7x7, partner max 1 µM)", 0.451),
]

====

# Test system: ESO51 (Esophageal Adenocarcinoma)
# PROTOCOL SUMMARY: combination Emax (second highest fraction inhibited in the dose matrix, 72 h); higher = more inhibition; extreme values may be limits of the assay
Below, each of the molecules is paired with its reported combination Emax value.

# MOLECULE, combination Emax
rows = [
    ("COc1cccc2c1C(=O)c1c(O)c3c(c(O)c1C2=O)C[C@@](O)(C(=O)CO)C[C@@H]3O[C@H]1C[C@H](N)[C@H](O)[C@H](C)O1 [Doxorubicin] + Cc1cc2ncnn2cc1Nc1ncc2c(n1)n(C1CCOCC1)c(=O)n2C [AZD7648] (first compound max 1 µM, 7x7, partner max 10 µM)", 0.611),
    ("Cc1cc2ncnn2cc1Nc1ncc2c(n1)n(C1CCOCC1)c(=O)n2C [AZD7648] + CN(C)CCCOc1ccc(-c2ccc3ncc4c(c3c2)n(C2CCOCC2)c(=O)n4C)cn1 [AZD0156] (first compound max 10 µM, 7x7, partner max 1 µM)", 0.192),
    ("COc1cc2ncnc(Nc3ccc(F)c(Cl)c3)c2cc1OCCCN1CCOCC1 [Gefitinib] + CC(C)n1c(=O)n(C)c2cnc3cc(F)c(-c4ccc(OCCCN5CCCCC5)nc4)cc3c21 [AZD1390] (first compound max 10 µM, 7x7, partner max 0.3 µM)", 0.188),
    ("CN(CCO)CC[C@H](CSc1ccccc1)Nc1ccc(S(=O)(=O)NC(=O)c2ccc(N3CCC([C@@H](O)c4ccccc4-c4ccc(Cl)cc4)CC3)cc2)cc1S(=O)(=O)C(F)(F)F [AZD4320] + C1CN(CCC1(C(=O)N[C@@H](CCO)C2=CC=C(C=C2)Cl)N)C3=NC=NC4=C3C=CN4 [Capivasertib] (first compound max 1 µM, 7x7, partner max 3 µM)", 0.0266),
]

====

Below, each of the molecules is paired with its reported combination Emax value.
# System: NCI-H661 (Non-Small Cell Lung Carcinoma)
# PROTOCOL SUMMARY: combination Emax (second highest fraction inhibited in the dose matrix, 72 h); higher = more inhibition; extreme values may be limits of the assay

# MOLECULE, combination Emax
measured = [
    ("NC1(C(=O)N[C@@H](CCO)c2ccc(Cl)cc2)CCN(c2ncnc3[nH]ccc23)CC1 [Capivasertib] + COc1nnc2ccc(N3CCC(c4ccc(OCCN5CCN(C)C(=O)[C@H]5C)cc4)CC3)nn12 [AZD5153] (first compound max 10 µM, 7x7, partner max 1 µM)", 0.454),
    ("CN(C)CCCOc1ccc(-c2ccc3ncc4c(c3c2)n(C2CCOCC2)c(=O)n4C)cn1 [AZD0156] + CCN(CCO)CCCOc1ccc2c(Nc3cc(CC(=O)Nc4cccc(F)c4)[nH]n3)ncnc2c1 [AZD2811] (first compound max 1 µM, 7x7, partner max 1 µM)", 0.0442),
    ("Cc1c2c(nn1C)CSCc1cc(n(C)n1)CSc1cc(c3ccccc3c1)OCCCc1c(C(=O)O)n(C)c3c-2c(Cl)ccc13 [AZD5991] + CCN(CCO)CCCOc1ccc2c(Nc3cc(CC(=O)Nc4cccc(F)c4)[nH]n3)ncnc2c1 [AZD2811] (first compound max 1 µM, 7x7, partner max 1 µM)", 0.686),
    ("Cc1c2c(nn1C)CSCc1cc(n(C)n1)CSc1cc(c3ccccc3c1)OCCCc1c(C(=O)O)n(C)c3c-2c(Cl)ccc13 [AZD5991] + C[C@@H]1COCCN1C2=NC(=NC(=C2)C3(CC3)[S@](=N)(=O)C)C4=C5C=CNC5=NC=C4 [AZD6738] (first compound max 1 µM, 7x7, partner max 10 µM)", 0.829),
]

====

Below, each of the molecules is paired with its reported combination Emax value.
# Test system: SK-GT-4 (Esophageal Adenocarcinoma)
# PROTOCOL SUMMARY: combination Emax (second highest fraction inhibited in the dose matrix, 72 h); higher = more inhibition; extreme values may be limits of the assay
REPORTED METRIC: combination Emax

# MOLECULE, RESULT
records = [
    ("C[C@@H](c1ccc2nccn2c1)n1nnc2ncc(-c3cnn(C)c3)nc21 [Savolitinib] + CC1(C)CCC(CN2CCN(c3ccc(C(=O)NS(=O)(=O)c4ccc(NCC5CCOCC5)c([N+](=O)[O-])c4)c(Oc4cnc5[nH]ccc5c4)c3)CC2)=C(c2ccc(Cl)cc2)C1 [Venetoclax] (first compound max 1 µM, 7x7, partner max 1 µM)", 0.101),
    ("CC1(C)CCC(CN2CCN(c3ccc(C(=O)NS(=O)(=O)c4ccc(NCC5CCOCC5)c([N+](=O)[O-])c4)c(Oc4cnc5[nH]ccc5c4)c3)CC2)=C(c2ccc(Cl)cc2)C1 [Venetoclax] + CS(=O)(=O)CCNCc1ccc(-c2ccc3ncnc(Nc4ccc(OCc5cccc(F)c5)c(Cl)c4)c3c2)o1 [Lapatinib] (first compound max 1 µM, 7x7, partner max 10 µM)", 0.341),
    ("CN(CCO)CC[C@H](CSc1ccccc1)Nc1ccc(S(=O)(=O)NC(=O)c2ccc(N3CCC([C@@H](O)c4ccccc4-c4ccc(Cl)cc4)CC3)cc2)cc1S(=O)(=O)C(F)(F)F [AZD4320] + Nc1ccn([C@@H]2O[C@H](CO)[C@@H](O)C2(F)F)c(=O)n1 [Gemcitabine] (first compound max 1 µM, 7x7, partner max 0.3 µM)", 0.31),
]
